Below is a list of entries, each paired with its recorded inhibition value.
Experiment: NOD1 signaling inhibitors, primary screen, cell-based, luminescence, uHTS (AID 1578);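 note: HEK-293T reporter cells stimulated with the NOD1 agonist gamma-tri-DAP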
Conditions: NOD1-driven NF-kB luciferase reporter cells, at 4 µM, stronger effect = higher value
Out of some 290,000 compounds screened, about 3,000 (1%) were called active. The entries come from a sample that favours actives as a whole.
EXPERIMENTAL ENDPOINT: inhibition (%)

1. CCOc1ccc2nc(SCC(=O)NC(=O)C(C)C)sc2c1: -13.9
2. COc1cc(OC)c(C(=O)/C=C/c2ccccc2)c(O)c1O: 21.4
3. COc1ccc(OC)c(Nc2nc(NCc3ccco3)nc(N)c2[N+](=O)[O-])c1: -6.4
4. COc1cc(O)c(C(=O)/C=C/c2ccccc2)c(OC)c1: 1.3
5. CCOc1ccc2nc(SCC(=O)Nc3ccc4c(c3)OCO4)sc2c1: 67.3
6. Nc1nc(-c2ccccc2)c(N=Nc2ccc(Cl)cc2)s1: 14.5
7. CSc1ccc(NC(=O)Nc2cccn(Cc3ccccc3)c2=O)cc1: 46.6
8. Nc1ccc(-c2nc3ccccc3o2)cc1: 5.8
9. CCc1ccccc1NC(=O)Nc1cccn(Cc2ccccc2F)c1=O: -23.3
10. O=C(COC(=O)c1cncc(Br)c1)NCCC1=CCCCC1: -8.5
11. CC1=CC(C)(C)Nc2ccc(OC(=O)CN3C(=O)c4ccccc4C3=O)cc21: 21.8
12. O=C(/C=C/c1ccccc1Cl)NCCc1ccc(F)cc1: -61.3
13. COc1ccnc(Oc2ccc(F)cc2)c1C(=O)N/C=N/OCc1ccc(F)cc1: -24
14. Fc1ccc2c(c1)C(c1ccncc1)=NNC(c1ccccc1)=N2: 16
15. Cn1ncc(N2CCN(C(=O)c3ccc(Cl)cc3)CC2)c(Cl)c1=O: -21.9
16. O=C(Nc1cccc(Cl)c1)c1cccnn1: -9.2
17. CCOc1ccc2nc(SCC(=O)c3ccccc3)sc2c1: -38.9
18. O=C(Cn1c(C(F)(F)F)nc2ccccc21)N1CCCC1: -9.5
19. CCOc1ccc(NC(=O)Nc2cccn(Cc3ccccc3)c2=O)cc1: 44.3
20. CC(C)(C)C(=O)Nc1cc2nn(-c3ccccc3)nc2cc1Cl: 87.1
21. CC1=CC(C)(C)Nc2ccc(OC(=O)c3ccco3)cc21: 98.8
22. Cc1cc(S(=O)(=O)Nc2ccc(C(=O)NCC(C)(C)N3CCOCC3)cc2)ccc1F: -4.6
23. Cc1ccc(C(=O)NC2CCc3ccccc3C2=O)cc1 (centres undefined): -47.4
24. Nc1nc(-c2ccccc2)c(N=Nc2cccnc2)s1: 69.6
